System: Highly purified T cells
Test: T cell proliferation induced by anti-CD3 mAb + PMA (BrdU incorporation)
Type: cell-based, Human
Details: Homo sapiens, T-cell; untitled structure table; no unit printed there, same values in Table II as IC50 in µM; read-out: aCD3
Reported IC50 values follow for various compounds
observationType: IC50 (µM)

> print(dat)
                           smilesstructure       experimentalsystem  readingqualifier  reading
1  CN1CCN(c2nc(N)nc3ncc(-c4ccccc4)nc23)CC1  Highly purified T cells                 =       40
2       COc1nc2nc(N)nc(OC)c2nc1C=Cc1ccccc1  Highly purified T cells                 =      160
3         Nc1nc(NCCO)nc2ncc(-c3ccccc3)nc12  Highly purified T cells                 =      125
4     COc1ccc(-c2cnc3nc(NCCO)nc(N)c3n2)cc1  Highly purified T cells                 >      200

###

System: Peripheral blood mononuclear cells (PBMC)
Test: Mixed lymphocyte reaction (MLR), [3H]-thymidine incorporation
Assay type: cell-based
Conditions: Homo sapiens, Table IV, known pteridine derivatives, IC50 subranges, read-out: MLR
Protocol: Various models may be used for testing an immunosuppressive effect. In vivo, for example, different transplantation models are available. […] Usually activation is measured via lymphocyte proliferation. […] Peripheral blood mononuclear cells (PBMC) were isolated from heparinized peripheral blood by density gradient centrifugation over Lymphoprep (Nycomed, Maorstua, Norway). […] After a further 16 hours incubation, cells were harvested and counted in a β-counter. […]
pIC50: −log10 of the molar value.
observationType: pIC50

> print(dat)
                                   molecule  reading
1  CSCc1cnc2nc(N)[nH]c(=O)c2n1 [CH2S CH3, reference compound]   < 3.82
2  CN(C)Cc1cnc2nc(N)[nH]c(=O)c2n1 [CH2N(CH3)2, reference compound]   < 3.82
3  CCCOCc1cnc2nc(N)nc(N)c2n1 [CH2 O CH2CH2CH3, reference compound]   < 3.82
4  CSCc1cnc2nc(N)nc(N)c2n1 [CH2 S CH3, reference compound]   < 3.82
5  COCc1cnc2nc(N)nc(N)c2n1 [CH2 O CH3, reference compound]   < 3.82
6  CCOCc1cnc2nc(N)[nH]c(=O)c2n1 [CH2OC2H5, reference compound]   < 3.82
7  CNCc1cnc2nc(N)[nH]c(=O)c2n1 [CH2NHCH3, reference compound]   < 3.82
8  CC(C)C(=O)NCc1cnc2nc(N)nc(N)c2n1 [CH2 NH CO CH (CH3)2, reference compound]   < 3.82

###

Reported IC50 values follow for various compounds
System: Peripheral blood mononuclear cells (PBMC)
Experiment: Mixed lymphocyte reaction (MLR), [3H]-thymidine incorporation
Format: cell-based
Settings: Homo sapiens, untitled structure table, no unit printed there, same values in Table II as IC50 in µM, read-out: MLR
observationType: IC50

> print(dat)
                                   compound  observationtype  reading
1  Nc1nc(N(Cc2ccccc2)Cc2ccccc2)c2nc(-c3ccc(Cl)cc3)cnc2n1 [Compound 26]             IC50   100 µM
2  COc1ccc(-c2cnc3nc(N)nc(N(Cc4ccccc4)Cc4ccccc4)c3n2)cc1 [Compound 27]             IC50    50 µM
3  Cc1ccc(-c2cnc3nc(N)nc(N(C)C)c3n2)cc1 [Compound 15]             IC50   3.6 µM
4  Nc1nc(N2CCNCC2)c2nc(-c3ccccc3)cnc2n1 [Compound 46, 2-amino-4-piperazino-6-phenylpteridine]             IC50    12 µM
